Test system: BT-549 breast
Assay: NCI-60 one-dose screen, 48 h (100 = growth as untreated, 0 = no growth, -100 = all killed)
Conditions: 10 µM unless noted
Compounds without any hit were thinned out: in the full panel of roughly 83,000, 20% have a hit.
Measurement name: growth (%)
Give bare numbers, in %.

Compound	growth (%)
COc1ccc([C@H]2c3[nH]c4ccccc4c3C[C@H]3C(=O)N(C4CCN(Cc5c(Cl)cccc5Cl)CC4)CC(=O)N23)c(OC)c1	119
Nc1ncc(-c2ccc3ncnc(Nc4cccc(Cl)c4F)c3c2)cn1	61.3

For each of the compounds below, note its growth.
1. CC(=O)C1=C(C)NC(NN)=NC1c1cccc(Cl)c1 (stereo unspecified)
2. CN1CCN(Cc2ccc(NC(=O)c3cncc(C#Cc4cnn5cccnc45)c3)cc2C(F)(F)F)CC1
3. COC(=O)c1[nH]nc2c1C1(C(=O)N(C)c3ccccc31)C(C#N)=C(N)O2 (stereo unspecified)
4. CC(C)(C)CC(C)(C)n1nnnc1C(Nc1nccs1)c1cc2cccc3ccc4cccc1c4c32 (stereo unspecified)
5. Cn1cc(-c2cc(N)n3nc(-c4cn(C)c5ccccc45)cc3n2)c2ccccc21
6. Cc1cc(C)c(N2C(=O)CC(Nc3ccc(Cl)cc3Cl)C2=O)c(C)c1 (stereo unspecified)

Outgoing:
1. 119
2. 47.1
3. 133
4. 91.6
5. 128
6. 112

For each of the compounds below, note its growth.
1. COc1ccc2[nH]cc(-c3csc4nc(-c5ccccc5)cn34)c2c1
2. COc1cc2nc(Cl)nc(Nc3cccc(C4=Nc5c(N)nc(N)nc5NC(c5ccc(F)cc5)C4)c3)c2cc1OC (stereo unspecified)
3. Cc1ccc(-n2cc(/C=N/NC(=O)c3ccncc3)c(-c3ccc(S(C)(=O)=O)cc3)n2)cc1

Outgoing:
45.8
78.1
74.1

* * *

Give growth for every item shown.
Tested on: HT29 colon
Experiment: NCI-60 one-dose screen, 48 h (100 = growth as untreated, 0 = no growth, -100 = all killed)
Details: 10 µM unless noted
The panel holds about 83,000 compounds, 20% with a hit somewhere; the sample as a whole holds those more often.
Give bare numbers, in %.

Example entries and their recorded answers appear below.
Compound	growth, %
CCCn1cnc2c(c1=N)C(c1ccc(OC)cc1)c1sc3c(CC)cccc3c1O2 (stereo not given)	5.9
NC(N)=Nc1ccc(Oc2cccc(Nc3ccc(Br)c(C(F)(F)F)c3)c2)cc1	11.5
Fc1ccc(-c2cc3nc(C(Cl)Cl)nc(-c4ccco4)n3n2)cc1	-13.4
CC1(C)[C@@H](O)CC[C@]2(C)[C@H]3CC[C@@H]4[C@H]5[C@H](C(=O)/C=C\c6ccncc6)CC[C@]5(O)CC[C@@]4(C)[C@]3(C)CC[C@@H]12	34.7

Continue with the next compound.
Incoming: Give growth for the following compound: `CCCCCc1ccc(S(=O)(=O)Nc2cc(-c3csc(NC(=O)CN4CCN(C)CC4)n3)ccc2OC)cc1`
Outgoing: -31.1

* * *

Test system: UACC-62 melanoma
Test: NCI-60 one-dose screen, 48 h (100 = growth as untreated, 0 = no growth, -100 = all killed)
Conditions: 10 µM unless noted
Method: Growth inhibition of the UACC-62 human tumor cell line is measured as a screen for anti-cancer activity. Cells are grown in 96 well plates and exposed to the test compound for 48 hours. Compounds are tested at a single concentration, which is 10^-5 M for most compounds. The reported endpoint is percent growth (GI% or GIPRCNT), where numbers from 0 - 100% represent growth inhibition, and numbers from -100% - 0 represent cell death. For example, a value of 40 represents 60% growth inhibition. […]
The panel holds about 83,000 compounds, 20% with a hit somewhere; the sample as a whole holds those more often.
Give growth for every item shown.
Numbers only, in %.

Example entries and their recorded answers appear below.
Smiles code	Measurement name	Observed
Nc1nc(-c2cccc([N+](=O)[O-])c2)c(N=Nc2ccc([N+](=O)[O-])cc2Cl)s1	growth	1.4
CN(Cc1ccccc1)S(=O)(=O)/N=C1\NC(=O)NC1=C(Cl)Cl	growth	62.2
COc1ccccc1NCc1cccn1Cc1ccc(F)cc1	growth	89.8
COC[C@]12CCC(C)(C)C[C@H]1C1=CC[C@@H]3[C@@]4(C)CCCNC(C)(C)[C@@H]4CC[C@@]3(C)[C@]1(C)CC2	growth	-74
Nc1nc(-c2cccc([N+](=O)[O-])c2)c(N=Nc2ccccc2)s1	growth	64
Oc1ccc(CSc2nnc(-c3ccc(Cl)cc3)n2-c2ccccc2)c2cccnc12	growth	9.41
CCOC(=O)c1c(N)c(C#N)cn1-c1cc(OC)c(OC)c(OC)c1	growth	101

Continue with the next molecule.
Incoming: Give growth for the following molecule: `CCCCCc1ccc(S(=O)(=O)Nc2cccc(-c3csc(NC(=O)CN4CCN(CCO)CC4)n3)c2)cc1`
Outgoing: 90

* * *

Give growth for every item shown.
System: A549/ATCC NSCLC
Experiment: NCI-60 one-dose screen, 48 h (100 = growth as untreated, 0 = no growth, -100 = all killed)
Conditions: 10 µM unless noted
This is part of a sample that, as a whole, favours compounds with a hit. Of some 83,000 tested, about 20% had one in any assay.
Numbers only, in %.

Compound	Measured target	Measurement name	Observed
COc1cc(/C=C2\C(=O)Nc3ccccc32)ccc1OCc1ccc(F)cc1	A549/ATCC NSCLC	growth	108
NC(N)=Nc1ccc(Oc2cccc(Nc3cccc(C(F)(F)F)c3)c2)cn1	A549/ATCC NSCLC	growth	35.8

For each of the compounds below, note its growth.
1. COc1cc(-c2nc(SCCC(C)C)nc(NNC(=O)c3ccncc3)c2C#N)cc(OC)c1OC
2. COc1ccc(C2CC(c3ccc(Nc4nc(NCCO)nc(N5CCOCC5)n4)cc3)=Nc3c(N)nc(N)nc3N2)cc1 (stereo not drawn)
3. CCc1cccc(NC(=O)CNc2cc(S(=O)(=O)N(C)C)cc(C)c2C)c1
4. COc1ccc2c(c1)c(CC(=O)[Se]CC(=O)O)c(C)n2C(=O)c1ccc(Cl)cc1

Outgoing:
1. 76.5
2. 104
3. 85.2
4. 21.6

For each of the compounds below, note its growth.
1. O=S(=O)(NCCNc1nccc(-n2cnc3ccccc32)n1)c1ccc(Br)cc1
2. Fc1ccc(-c2cc3nc(C(Cl)Cl)nc(-c4ccc(F)cc4)n3n2)cc1

Outgoing:
1. 100
2. -26.8

* * *

Tested on: DU-145 prostate
Experiment: NCI-60 one-dose screen, 48 h (100 = growth as untreated, 0 = no growth, -100 = all killed)
Conditions: 10 µM unless noted
Protocol: Cells are grown in 96 well plates and exposed to the test compound for 48 hours. Compounds are tested at a single concentration, which is 10^-5 M for most compounds. The reported endpoint is percent growth (GI% or GIPRCNT), where numbers from 0 - 100% represent growth inhibition, and numbers from -100% - 0 represent cell death. For example, a value of 40 represents 60% growth inhibition. A value of 0 means no net growth occurred over the course of the experiment. […]
Compounds without any hit were thinned out: in the full panel of roughly 83,000, 20% have a hit.
Measurement name: growth (%)
Give bare numbers, in %.

Compound	Unit of measure	growth
Cn1ccnc1C(=O)/C=C/c1ccc(CNC(=O)c2ccc(F)cc2)cc1	%	13.2

For each of the compounds below, note its growth.
1. NC(N)=Nc1ccc(Oc2cccc(Nc3ccc(Cl)c(C(F)(F)F)c3)c2)cc1
2. COC(=O)c1[nH]nc2c1C1(C(=O)c3cccc4cccc1c34)C(C#N)=C(N)O2 (stereo not drawn)

Outgoing:
1: 47.8; 2: 104

* * *

Tested on: SK-MEL-28 melanoma
Test: NCI-60 one-dose screen, 48 h (100 = growth as untreated, 0 = no growth, -100 = all killed)
Details: 10 µM unless noted
This is part of a sample that, as a whole, favours compounds with a hit. Of some 83,000 tested, about 20% had one in any assay. Calls of active or inactive are those of the source. The calls were made as follows: active = growth percent below 10; inactive = the rest.
Measurement name: growth

Example entries and their recorded answers appear below.
Compound	growth
C[C@@H](Nc1ncnc2ccc(-c3cnc(Cl)c(NS(C)(=O)=O)c3)cc12)c1ccccc1	50.4% (inactive)
COc1cccc(N2CCN(c3ncnc4c3[nH]c3ccc(F)cc34)C[C@H]2C)c1	50.7% (inactive)
CS(=O)(=O)Nc1cc(-c2ccc3ncc(C#N)c(NCc4cccc(F)c4)c3c2)cnc1Cl	4.56% (active)
O=C(CN1CCN(c2cc(=O)n(-c3ccccc3)c3ccccc23)CC1)Nc1nc(-c2ccc(Cl)cc2)cs1	69.2% (inactive)
NC(N)=Nc1ccc(Oc2cccc(NC(N)=Nc3ccc(Cl)c(C(F)(F)F)c3)c2)cc1	70% (inactive)

For each of the compounds below, note its growth.
1. CNC(=O)c1cc(-n2ccc3cc(NC(=O)Nc4ccc(N5CCOCC5)c(C(F)(F)F)c4)ccc32)ccn1
2. CC(=O)c1ccc(Nc2nc(SCC(C)C)nc(-c3ccc(F)cc3)c2C#N)cc1
3. O=C(c1ccc(Cl)cc1)C1[C@H](c2ccc(Cl)cc2)[C@@H](c2ccccc2)NC12C(=O)Nc1ccccc12 (some centres not stated)
4. c1cn2c(ccc3nc(-c4cn[nH]c4)c4c(c32)CCCC4)n1
5. O=C(NNc1nc2cc(F)cc(F)c2n2cccc12)c1cnccn1
6. c1ccc(C(c2nc3ncncc3[nH]2)N2CSc3nc4ccccc4n3C2)cc1 (configuration not stated)
7. COc1cc(OC)cc(C(=O)Nc2sc3c(c2C(N)=O)CCC(=O)C3)c1

Outgoing:
1: 62.9% (inactive); 2: 108% (inactive); 3: 81.2% (inactive); 4: 66% (inactive); 5: 25.8% (inactive); 6: 104% (inactive); 7: 48% (inactive)
